Here, each record is paired with measured growth data.
Tested on: OVCAR-8 ovarian
ASSAY_DETAILS: NCI-60 one-dose screen, 48 h (100 = growth as untreated, 0 = no growth, -100 = all killed)
CONDITION_CONTEXT: 10 µM unless noted
This is part of a sample that, as a whole, favours compounds with a hit. Of some 83,000 tested, about 20% had one in any assay. Activity calls are given as the source filed them. How the source made its calls: active means growth percent below 10; inactive means the rest.

COMPOUND	growth
CO[C@@]12[C@@H]3NC3CN1C1=C(C(=O)C(N)=C(C)C1=O)[C@@H]2COC(N)=O (stereo not given in full)	15.8% (inactive)
CC(C)c1ccc(Cn2ccc3c4c(N)nc(NC5CC5)nc4ccc32)cc1	-77.8% (active)
COc1ccc(-c2nn(-c3cccc(Cl)c3)cc2/C=C2\C(=N)N(c3ccccc3)N=C2N)cc1	42.3% (inactive)
O=C1c2ccccc2C2N1CCC1CCc3ccccc3N12 (stereo not given)	101% (inactive)
O=C(Nc1cnc(C(F)(F)F)cn1)c1cc(Cl)ccc1O	4.89% (active)
COc1cccc(OCC(O)CN2CCN(c3ccccc3)CC2)c1 (stereo not given)	103% (inactive)
Cc1cc(C)cc(CCCCCCCCCCCCCCCCCC(=O)O)c1	103% (inactive)
COc1ccc2[nH]c(O)c(/C=c3/ccc4c(c3)N=C(c3ccc(C(F)(F)F)cc3)N=4)c2c1	87.1% (inactive)
CSC1=NC(=Nc2c(C)cccc2C)C2(CCC(C(C)(C)C)CC2)N1c1ccc(Cl)cc1 (stereo not given)	31.6% (inactive)
COc1ccc(CCN2COc3c([C@@H](C)CCC=C(C)C)ccc(C)c3C2)cc1OC	72.1% (inactive)

---

System: HCC-2998 colon
ASSAY_DETAILS: NCI-60 one-dose screen, 48 h
CONDITION_CONTEXT: 10 µM unless noted
Description: Growth inhibition of the HCC-2998 human tumor cell line is measured as a screen for anti-cancer activity. Cells are grown in 96 well plates and exposed to the test compound for 48 hours. Compounds are tested at a single concentration, which is 10^-5 M for most compounds. The reported endpoint is percent growth (GI% or GIPRCNT), where numbers from 0 - 100% represent growth inhibition, and numbers from -100% - 0 represent cell death. For example, a value of 40 represents 60% growth inhibition. […]
The panel holds about 83,000 compounds, 20% with a hit somewhere; the sample as a whole holds those more often. Calls of active or inactive are those of the source. The calls were made as follows: active = growth percent below 10; inactive = the rest.
Outcomes: active, inactive

COMPOUND	SYSTEM_TESTED	CLASS_NAME
COc1c(B(O)O)cccc1-c1nc2c(F)cc3n[nH]c(C)c3c2c2c1CCCC2	HCC-2998 colon	inactive
O=C1Cc2c([nH]c3ccc([N+](=O)[O-])cc23)-c2ccccc2N1	HCC-2998 colon	active
Cc1cc(C)cc(NC(=O)Cn2nncc2CN2C(=O)CSC2=O)c1	HCC-2998 colon	inactive
O=C(Nc1cnc(C(F)(F)F)cn1)c1cc(Cl)ccc1O	HCC-2998 colon	inactive
COc1ccc(/C(=C\c2cc(OC)c(OC)c(OC)c2)C(=O)N2CCNCC2)cc1	HCC-2998 colon	inactive
COc1cc2c(cc1OC)C(=O)C(Br)CC2 (stereo not drawn)	HCC-2998 colon	inactive
C#CC[C@@H]1C[C@]2(C)[C@H]3CC=C4[C@H]5[C@@H](C)[C@H](C)CC[C@]5(C(=O)NCCCCCCCCN)CC[C@@]4(C)[C@]3(C)CC[C@H]2C(C)(C)[C@H]1OC(C)=O	HCC-2998 colon	inactive
Cc1cc(C#Cc2ccccc2)ccc1-n1c(/C=C/c2ccc(F)cc2)nc2ccccc2c1=O	HCC-2998 colon	inactive
Nc1nc(N)c2c(n1)NC(c1sc(Cl)nc1Cl)CC(c1ccccc1)=N2 (stereo not drawn)	HCC-2998 colon	inactive
C#CC[C@@H]1C[C@]2(C)[C@H]3CC[C@@H]4[C@H]5C(C(=C)C)CC[C@]5(C(=O)NCCN(CCN)CCN)CC[C@@]4(C)[C@]3(C)CC[C@H]2C(C)(C)[C@H]1OC(C)=O (stereo partly drawn)	HCC-2998 colon	inactive
O=C(/C=C/c1cn(-c2ccccc2)nc1-c1cccc(Nc2ccnc3cc(Cl)ccc23)c1)c1ccc2c(c1)OCO2	HCC-2998 colon	inactive
O=C1CC2(O)CSc3nc(=O)cc(n32)N1 (stereo not drawn)	HCC-2998 colon	inactive
O=C1C2=C(C(=O)c3c(O)ccc(O)c31)N(c1ccc(N3CCOCC3)nc1)Cc1ccccc1O2	HCC-2998 colon	active
O=C(c1ccc(C(F)(F)F)c(Cl)c1)N(Cc1ccc(Cl)cc1)c1ccc(-c2cc(C(F)(F)F)[nH]n2)c(O)c1	HCC-2998 colon	inactive
O=NN(CC(=O)NNc1ccccc1)CC(=O)NNc1ccccc1	HCC-2998 colon	inactive
C=C1NC(=O)C(C(C)CC)NC(=O)C2CSCC(NC(=O)CCC(=O)O)C(=O)NC(Cc3ccccc3)C(=O)NC(C)C(=O)NC(CC(C)CC)C(=O)NC(C(=O)NC(Cc3ccccc3)C(=O)N3CCCC3C(=O)N2)C(C)OC(=O)C(CO)NC(=O)C(C(O)COC)N(C)C(=O)C(C(C)C)NC(=O)C(CC(C)CC)NC1=O (stereo not drawn)	HCC-2998 colon	inactive
CCCCCCCCCCCCCCCCS(=O)(=O)Nc1cc(C(=O)NN)cc(C(=O)NN)c1	HCC-2998 colon	inactive
O=C(Nc1ccccc1Cl)Oc1ccc2ccccc2c1	HCC-2998 colon	inactive
NC(=Nc1ccccc1)SCCCSC(N)=Nc1ccccc1	HCC-2998 colon	inactive
COc1ccc(Nc2ncccc2C(=O)NCc2cn(Cc3cc(OC)cc(OC)c3)nn2)cc1	HCC-2998 colon	inactive
COc1cc2nccc(Oc3ccc(NC(=O)C4(C(=O)Nc5c(F)cc(F)cc5F)CC4)cc3)c2cc1Oc1ccc(N)cn1	HCC-2998 colon	inactive
COc1ccc(/C(=C\c2cc(OC)c(OC)c(OC)c2)C(=O)Nc2nc3ccc(Cl)cc3s2)cc1	HCC-2998 colon	inactive
CN(C)c1ccc(/C=N/Nc2nnc3n2N=C(c2ccc(Cl)cc2)CS3)cc1	HCC-2998 colon	inactive
CN1CCN(Cc2ccc(NC(=O)c3cncc(C#Cc4ccc(N)nc4)c3)cc2C(F)(F)F)CC1	HCC-2998 colon	inactive
COc1cc(-c2csc(NC(=O)Nc3cccc(C(F)(F)F)c3)n2)cc(OC)c1OC	HCC-2998 colon	inactive
Cc1ccc(NC(=O)c2[nH]c(SCCN(C)C)nc2-c2ccc(F)cc2)cc1Nc1ccc2ncn(C)c(=O)c2c1	HCC-2998 colon	inactive
O=C(NO)c1ccc(NCc2csc3ccccc23)cc1	HCC-2998 colon	inactive
CCCCN(CCCC)CCC(O)c1cc2ccc(C(F)(F)F)cc2c2cc(C(F)(F)F)ccc12 (stereo not drawn)	HCC-2998 colon	active
C=CCN(CCOC(=O)c1ccc([N+](=O)[O-])cc1)CCOC(=O)c1ccc([N+](=O)[O-])cc1	HCC-2998 colon	inactive
CC(=O)c1ccc(-n2c(-c3cc(-c4ccsc4)n[nH]3)n[nH]c2=S)cc1	HCC-2998 colon	inactive
Cc1cc(Cl)c2ccc(N(C)C)cc2n1	HCC-2998 colon	inactive
O=C(O)c1ccccc1N=Cc1ccccc1	HCC-2998 colon	inactive
FC(F)(F)C1=NNC(c2ccc3ccccc3c2)=NN1	HCC-2998 colon	inactive
COc1ccc(Br)c2ccccc12	HCC-2998 colon	inactive
CSC1=NC(=Nc2c(C)cccc2C)C2(CCC(C(C)(C)C)CC2)N1c1ccc(Cl)cc1 (stereo not drawn)	HCC-2998 colon	inactive
CCCCCNCCCCCNc1cc(OC)cc2cccnc12	HCC-2998 colon	inactive
COCCn1c(Nc2ccc(C(=O)NO)cc2)nc2ccccc21	HCC-2998 colon	inactive
COc1cccc(/C=N/N=C(N)N)c1	HCC-2998 colon	inactive

---

Test system: OVCAR-5 ovarian
ASSAY_DETAILS: NCI-60 one-dose screen, 48 h (100 = growth as untreated, 0 = no growth, -100 = all killed)
CONDITION_CONTEXT: 10 µM unless noted
This is part of a sample that, as a whole, favours compounds with a hit. Of some 83,000 tested, about 20% had one in any assay.

COMPOUND	growth, %
NC(N)=N/N=C\c1ccc(OCc2ccccc2)cc1	82.8
Cc1nc2ccc(Nc3nc(N4CCOCC4)nc(N4CCN(C)CC4)n3)cc2n1Cc1ccccc1	101
CCOC(=O)C1=C(C)NC(SCc2nnc(-c3ccc(Cl)cc3)o2)=NC1c1ccc(Br)cc1 (stereo unspecified)	93.9
CCCCCCCCCCCCCCC(C(=O)OCC)C(=O)OCC	103
c1ccc(-c2[nH]c3ccccc3c2-c2ccccc2)cc1	91.8
CC1=NC(c2ccc(Cl)cc2)C2=C(N1)/C(=C/c1ccc(Cl)cc1)CCC2 (stereo unspecified)	114
CC(C)OC(=O)c1ccc([N+](=O)[O-])cc1	112
Clc1ccc2c(c1)-c1ccccc1C1=NCCN12	41.2
Cn1nc(C(F)(F)F)cc1-c1cc(Cl)c(OCc2ccc(Cl)cc2)c(-c2ccc(Cl)c(C(F)(F)F)c2)c1O	10.3
Nc1nc(N)c2c(n1)NC(c1sc(Cl)nc1Cl)CC(c1ccccc1)=N2 (stereo unspecified)	76.7
Cc1cc(C)c(C#N)c(SCC(=O)c2sc3c(C#N)c(C)cc(C)[n+]3c2[O-])n1	41.6
COc1cc2nccc(Oc3ccc(NC(=O)C4(C(=O)Nc5ccc(F)cc5)CC4)cc3)c2cc1Oc1ccc(N)cn1	40
CCOC(CN1CCN(CC(C)C(=O)c2ccccc2)CC1)c1ccccc1 (stereo unspecified)	110
CCC1CCc2nc3sc(C(=O)Nc4cccc(F)c4)c(N)c3cc2C1 (stereo unspecified)	90.5
COc1ccc2c(c1)CCCC21C(=O)Nc2c(Cl)cccc21 (stereo unspecified)	92.9
Brc1ccccc1Cn1c(-c2cncs2)nc2ccccc21	70.8
CCCCn1c(C)nc2ccc(Nc3nc(Cl)nc4nc[nH]c34)cc21	74.5
CCCCCCCCCCCCCC(=S)NCCCC[C@H](NC(=O)OCc1ccccc1)C(=O)Nc1ccccc1	89.5
OC(c1cc(-c2ccc(C(F)(F)F)cc2)nc(-c2ccc(C(F)(F)F)cc2)c1)C1CCCCN1 (stereo unspecified)	-77
COc1ccc(C2C=C(c3ccc(Cl)cc3)N=C3SC=CN32)cc1 (stereo unspecified)	121
Cc1cc(O)c(C2=NN(c3ccc(S(N)(=O)=O)cc3)C(c3ccc(Cl)cc3)C2)c(C)c1Cl (stereo unspecified)	95.2
